# System Under Test: Adenosine receptor A2b (Homo sapiens, UniProt P29275)
# Sequence (P29275 whole entry): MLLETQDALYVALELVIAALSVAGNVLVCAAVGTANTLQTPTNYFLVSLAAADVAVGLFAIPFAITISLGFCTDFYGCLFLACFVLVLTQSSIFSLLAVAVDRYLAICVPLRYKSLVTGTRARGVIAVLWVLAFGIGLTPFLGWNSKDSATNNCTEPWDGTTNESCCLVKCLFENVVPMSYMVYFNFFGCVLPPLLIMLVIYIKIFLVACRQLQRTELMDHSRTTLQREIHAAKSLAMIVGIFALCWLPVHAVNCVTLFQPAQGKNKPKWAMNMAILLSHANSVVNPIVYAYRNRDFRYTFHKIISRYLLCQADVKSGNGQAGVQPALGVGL
# Test Summary: Antagonist activity at human adenosine A2B receptor expressed in CHO cells assessed as inhibition of NECA-stimulated adenylyl cyclase activity
pEC50: −log10 of the molar value.
Property Measured: pEC50

Smiles Str	pEC50
O=C(Nc1ccccc1)Nc1nc(Oc2ccccc2)nc2nc(-c3ccco3)nn12	5.05

// query pEC50 value for entry COc1ccc(CC(=O)Nc2nc(Oc3ccccc3)nc3nc(-c4ccco4)nn23)cc1 < 4.00

Okay, and CN(C)c1nc(N)n2nc(-c3ccco3)nc2n1 ? 4.47

Okay, and CN(C)c1nc(NC(=O)Nc2ccccc2)n2nc(-c3ccco3)nc2n1 ? < 4.00

Okay, and CCCCCC(=O)Nc1nc(SC)nc2nc(-c3ccco3)nn12 ? < 4.00

Okay, and CN(C)c1nc(NC(=O)C(c2ccccc2)c2ccccc2)n2nc(-c3ccco3)nc2n1 ? < 4.00

Okay, and COc1ccc(CC(=O)Nc2nc(N(C)C)nc3nc(-c4ccco4)nn23)cc1 ? < 4.00

Okay, and O=C(Nc1nc(Oc2ccccc2)nc2nc(-c3ccco3)nn12)C(c1ccccc1)c1ccccc1 ? < 4.00

###

Target chain: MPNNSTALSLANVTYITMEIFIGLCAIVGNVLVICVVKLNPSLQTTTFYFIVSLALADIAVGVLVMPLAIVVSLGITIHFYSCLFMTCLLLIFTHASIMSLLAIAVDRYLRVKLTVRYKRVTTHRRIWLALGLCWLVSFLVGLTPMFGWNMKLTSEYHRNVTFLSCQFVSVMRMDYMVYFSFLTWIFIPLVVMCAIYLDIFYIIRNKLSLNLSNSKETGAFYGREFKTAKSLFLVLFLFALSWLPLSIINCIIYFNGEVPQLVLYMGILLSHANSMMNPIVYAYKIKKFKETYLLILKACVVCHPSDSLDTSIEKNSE
log10 Ki values, listed per item
A difference of one corresponds to tenfold Ki; all values are log10 with Ki in µM.

The examples below pair each entry with its known result.
Smiles Str	log10 Ki
COc1ccc(CC(=O)Nc2nc(SC)nc3nc(-c4ccco4)nn23)cc1	0.32
CN(C)c1nc(N)n2nc(-c3ccco3)nc2n1	0.86
CSc1nc(NC(=O)Cc2ccccc2)n2nc(-c3ccco3)nc2n1	0.62
CSc1nc(NC(=O)C(c2ccccc2)c2ccccc2)n2nc(-c3ccco3)nc2n1	-0.77
O=C(Nc1nc(Oc2ccccc2)nc2nc(-c3ccco3)nn12)C(c1ccccc1)c1ccccc1	0.64

// query log10 Ki value for entry CSc1nc(NC(=O)Nc2ccccc2)n2nc(-c3ccco3)nc2n1 -0.38

###

Let's go through some log10(Ki) measurements on Adenosine receptor A2a (Rattus norvegicus, UniProt P30543) together.
Sequence (P30543 whole entry): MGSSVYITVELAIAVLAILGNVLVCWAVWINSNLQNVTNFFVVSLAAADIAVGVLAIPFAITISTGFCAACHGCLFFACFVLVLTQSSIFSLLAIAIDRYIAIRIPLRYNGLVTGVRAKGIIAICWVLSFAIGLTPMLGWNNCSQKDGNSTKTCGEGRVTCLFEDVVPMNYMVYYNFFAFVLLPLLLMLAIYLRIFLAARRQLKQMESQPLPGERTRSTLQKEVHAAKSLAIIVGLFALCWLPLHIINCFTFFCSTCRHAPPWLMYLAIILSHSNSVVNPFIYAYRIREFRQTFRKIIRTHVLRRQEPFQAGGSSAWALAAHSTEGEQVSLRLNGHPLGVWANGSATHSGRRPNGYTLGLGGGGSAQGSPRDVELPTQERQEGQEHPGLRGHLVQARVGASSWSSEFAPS
A difference of one corresponds to tenfold Ki; all values are log10 with Ki in nM.

The examples below pair each entry with its known result.
Smiles Str	log10(Ki)
CSc1nc(NC(=O)Cc2ccccc2)n2nc(-c3ccco3)nc2n1	2.63
CCCCCC(=O)Nc1nc(SC)nc2nc(-c3ccco3)nn12	2.63
O=C(Nc1ccccc1)Nc1nc(Oc2ccccc2)nc2nc(-c3ccco3)nn12	1.59
Nc1nc(Oc2ccccc2)nc2nc(-c3ccco3)nn12	1.26
COc1ccc(CC(=O)Nc2nc(Oc3ccccc3)nc3nc(-c4ccco4)nn23)cc1	2.95
CSc1nc(NC(=O)Nc2ccccc2)n2nc(-c3ccco3)nc2n1	3.22

// query log10(Ki) value for entry O=C(Nc1nc(Oc2ccccc2)nc2nc(-c3ccco3)nn12)C(c1ccccc1)c1ccccc1 3.27
